Recorded values, source patent US8835472B2.

Biological target: human ACC2 (Homo sapiens (Human))
Recorded pIC50 by entry
Scale: pIC50 equals -log10([C]), with [C] in mol/L.

Give its pIC50 value. Item: CC(=O)NC(C)Cc1ccc(C#Cc2ccc(OCc3cncs3)cc2)cc1 (stereo not drawn) [Example 9.28]
6.16

Give its pIC50 value. Item: CC(=O)NC(C)c1ccc(C#Cc2ccc(OC(C)C)cc2)cc1 (stereo not drawn) [Example 2.47]
6.44

Give its pIC50 value. Item: CC(=O)NC(C)Cc1ccc(C#Cc2ccc3c(c2)CCO3)cc1 (stereo not drawn) [Example 2.8]
6.14

Give its pIC50 value. Item: CCOc1ccc(C#Cc2ccc(CC(C)NC(=O)C3CNC(=O)C3)cc2)cc1 (stereo not drawn) [Example 4.32]
6.36

Give its pIC50 value. Item: CC(=O)NC(C)Cc1ccc(C#Cc2ccc(C)cc2)cc1 (stereo not drawn) [Example 1.2]
6.09

Next:
Give its pIC50 value. Item: CCOc1ccc(C#Cc2ccc(C(C)NC(=O)C3(C)CC3)cc2)cc1 (stereo not drawn) [Example 4.44]
5.82

Give its pIC50 value. Item: CC(Cc1ccc(C#Cc2cnc(NCc3cccnc3)nc2)cc1)NC(=O)C1CC1 (stereo not drawn) [Example 13.46]
5.57

Give its pIC50 value. Item: CC(=O)NC(C)Cc1ccc(C#Cc2cccc(C(=O)N3CCOCC3)c2)cc1 (stereo not drawn) [Example 1.32]
4.77

Give its pIC50 value. Item: CC(=O)NC(C)Cc1ccc(C#Cc2cnc(OCC(C)(F)F)nc2)cc1 (stereo not drawn) [Example 12.43]
5.59

Give its pIC50 value. Item: CCCOc1ccc(C#Cc2ccc(CC(C)NC(C)=O)cc2)c(Cl)c1 (stereo not drawn) [Example 2.93]
7.10

Give its pIC50 value. Item: CC(=O)NC(C)Cc1ccc(C#Cc2ccnc(N3CCC4(CCCC4)C3)n2)cc1 (stereo not drawn) [Example 11.28]
6.42

Give its pIC50 value. Item: CC(=O)NC(C)Cc1ccc(C#Cc2cnc(NCc3ccccc3C)nc2)cc1 (stereo not drawn) [Example 13.55]
6.89

Give its pIC50 value. Item: CC(=O)NC(C)Cc1ccc(C#Cc2cnc(OC3CCOC3)nc2)cc1 (stereo not drawn) [Example 12.10]
6.20

Give its pIC50 value. Item: CC(=O)NC(C)Cc1ccc(C#Cc2cccc(OC(C)C)c2)cc1 (stereo not drawn) [Example 1.27]
6.26

Give its pIC50 value. Item: CCOc1ccc(C#Cc2ccc(CC(C)NC(=O)C3CCNC3)cc2)cc1 (stereo not drawn) [Example 4.74]
5.55

###

Molecular target: human ACC2 (Homo sapiens (Human), UniProt O00763)
Sequence (O00763 129-2458): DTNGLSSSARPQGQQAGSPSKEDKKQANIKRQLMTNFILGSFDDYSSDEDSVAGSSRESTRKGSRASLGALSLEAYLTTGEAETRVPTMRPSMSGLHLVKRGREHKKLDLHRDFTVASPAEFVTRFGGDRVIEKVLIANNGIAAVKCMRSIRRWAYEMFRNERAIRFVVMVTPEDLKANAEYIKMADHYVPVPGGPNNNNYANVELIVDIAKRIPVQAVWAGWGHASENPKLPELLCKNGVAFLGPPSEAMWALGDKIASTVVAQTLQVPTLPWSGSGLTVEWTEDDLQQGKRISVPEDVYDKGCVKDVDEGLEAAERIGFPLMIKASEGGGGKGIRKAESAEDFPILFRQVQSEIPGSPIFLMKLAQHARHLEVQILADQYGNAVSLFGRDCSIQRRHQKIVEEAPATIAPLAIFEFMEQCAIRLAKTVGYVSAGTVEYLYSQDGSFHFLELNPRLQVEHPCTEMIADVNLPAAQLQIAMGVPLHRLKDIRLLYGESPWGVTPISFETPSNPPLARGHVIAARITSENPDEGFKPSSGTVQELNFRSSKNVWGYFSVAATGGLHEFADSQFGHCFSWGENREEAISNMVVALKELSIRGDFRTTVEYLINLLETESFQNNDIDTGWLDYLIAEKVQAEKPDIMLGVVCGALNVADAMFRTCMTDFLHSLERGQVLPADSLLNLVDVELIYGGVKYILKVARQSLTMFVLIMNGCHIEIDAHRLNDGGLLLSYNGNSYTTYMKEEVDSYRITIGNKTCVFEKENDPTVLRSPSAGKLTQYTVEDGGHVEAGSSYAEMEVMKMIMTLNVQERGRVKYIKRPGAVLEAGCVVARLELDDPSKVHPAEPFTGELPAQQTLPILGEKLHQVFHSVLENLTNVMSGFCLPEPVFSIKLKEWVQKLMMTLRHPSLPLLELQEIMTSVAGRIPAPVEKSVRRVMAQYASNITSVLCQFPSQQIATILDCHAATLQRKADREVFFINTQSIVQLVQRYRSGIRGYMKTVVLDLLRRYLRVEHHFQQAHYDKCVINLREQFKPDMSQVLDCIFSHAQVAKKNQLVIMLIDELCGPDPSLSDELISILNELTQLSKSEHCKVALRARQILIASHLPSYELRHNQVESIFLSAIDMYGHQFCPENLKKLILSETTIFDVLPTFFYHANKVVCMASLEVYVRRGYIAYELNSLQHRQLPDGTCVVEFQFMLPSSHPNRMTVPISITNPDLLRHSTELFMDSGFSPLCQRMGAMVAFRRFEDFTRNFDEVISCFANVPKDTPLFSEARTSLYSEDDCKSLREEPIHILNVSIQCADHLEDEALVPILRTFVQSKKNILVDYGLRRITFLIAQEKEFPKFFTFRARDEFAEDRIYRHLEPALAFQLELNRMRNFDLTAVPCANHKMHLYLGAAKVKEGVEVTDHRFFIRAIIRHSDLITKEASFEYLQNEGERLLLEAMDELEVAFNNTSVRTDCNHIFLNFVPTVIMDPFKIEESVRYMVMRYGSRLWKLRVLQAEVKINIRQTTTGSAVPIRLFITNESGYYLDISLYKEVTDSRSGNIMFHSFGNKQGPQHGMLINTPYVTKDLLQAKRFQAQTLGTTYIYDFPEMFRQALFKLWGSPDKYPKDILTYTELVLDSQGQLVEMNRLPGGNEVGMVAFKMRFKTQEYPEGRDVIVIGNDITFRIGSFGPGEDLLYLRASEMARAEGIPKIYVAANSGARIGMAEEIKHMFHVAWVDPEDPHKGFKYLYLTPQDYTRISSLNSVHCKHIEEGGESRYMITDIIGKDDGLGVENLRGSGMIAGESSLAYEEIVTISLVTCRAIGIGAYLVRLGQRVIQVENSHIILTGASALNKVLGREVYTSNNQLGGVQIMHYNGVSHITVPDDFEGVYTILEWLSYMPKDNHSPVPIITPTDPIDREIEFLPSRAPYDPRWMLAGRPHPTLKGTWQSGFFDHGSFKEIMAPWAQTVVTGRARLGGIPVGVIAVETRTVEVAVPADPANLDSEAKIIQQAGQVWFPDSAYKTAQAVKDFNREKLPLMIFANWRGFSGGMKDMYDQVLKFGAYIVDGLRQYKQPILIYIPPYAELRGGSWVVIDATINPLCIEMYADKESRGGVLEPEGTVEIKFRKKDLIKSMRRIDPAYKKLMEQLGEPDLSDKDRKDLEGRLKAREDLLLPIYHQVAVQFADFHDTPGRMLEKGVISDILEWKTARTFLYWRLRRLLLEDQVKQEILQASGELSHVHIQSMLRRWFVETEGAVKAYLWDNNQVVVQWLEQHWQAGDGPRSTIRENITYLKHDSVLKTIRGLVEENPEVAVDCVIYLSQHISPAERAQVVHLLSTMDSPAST
In plain terms, low IC50, meaning strictly below 500 nM, gives yes (1), and everything else gives no (0).

API: query returns whether the compound falls strictly under 500 nM in IC50. Query: CCOc1ccc(C#Cc2ccc(CC(C)NC(=O)C3CCNC3=O)cc2)cc1 (stereo not drawn) [Example 4.58]
no (0)

###

Target: human ACC2 (Homo sapiens (Human), UniProt O00763)
Recorded pIC50 by entry
Scale: pIC50 equals -log10([C]), with [C] in mol/L.

Known results for compounds:
What value of pIC50 on human ACC2 (Homo sapiens (Human), UniProt O00763) does CC(=O)NC(C)Cc1ccc(C#Cc2cnc(NCC3CCCC3)nc2)cc1 (stereo not drawn) have?
6.22

What value of pIC50 on human ACC2 (Homo sapiens (Human), UniProt O00763) does CC(=O)NC(C)Cc1ccc(C#Cc2ccnc(N3CC(F)(F)C3)n2)cc1 (stereo not drawn) have?
5.09

What value of pIC50 on human ACC2 (Homo sapiens (Human), UniProt O00763) does CC(CNC(=O)c1cn[nH]c1)c1ccc(C#Cc2cnc(OC3CCC3)nc2)cc1 (stereo not drawn) have?
6.34

What value of pIC50 on human ACC2 (Homo sapiens (Human), UniProt O00763) does CC(=O)NC(C)Cc1ccc(C#Cc2cnc(NCCC(C)(C)C)nc2)cc1 (stereo not drawn) have?
6.72

Next:
What value of pIC50 on human ACC2 (Homo sapiens (Human), UniProt O00763) does CC(Cc1ccc(C#Cc2cnc(NC3CCCC3)nc2)cc1)NC(=O)C1CC1 (stereo not drawn) have?
6.22

What value of pIC50 on human ACC2 (Homo sapiens (Human), UniProt O00763) does CC(=O)NC(C)Cc1ccc(C#Cc2cnc(OC3CCC3)nc2)cc1 (stereo not drawn) have?
7.05

What value of pIC50 on human ACC2 (Homo sapiens (Human), UniProt O00763) does CC(=O)NC(C)Cc1ccc(C#Cc2cnc(OCCC3CC3)nc2)cc1 (stereo not drawn) have?
6.49

What value of pIC50 on human ACC2 (Homo sapiens (Human), UniProt O00763) does CCCCOc1ccc(C#Cc2ccc(CC(C)NC(C)=O)cc2)nn1 (stereo not drawn) have?
6.06

What value of pIC50 on human ACC2 (Homo sapiens (Human), UniProt O00763) does CCCOc1ccc(C#Cc2ccc(CCC(C)NC(C)=O)cc2)cc1 (stereo not drawn) have?
6.89

###

Molecular target: human ACC2 (Homo sapiens (Human))
readout: IC50

What value of IC50 on human ACC2 (Homo sapiens (Human)) does COc1ccc(Oc2ncc(C#Cc3ccc(CC(C)NC(C)=O)cc3)cn2)cn1 (stereo not drawn) have?
630 nM

What value of IC50 on human ACC2 (Homo sapiens (Human)) does CC(C)COc1ccc(C#Cc2ccc(CC(C)NC(=O)C3CC3)cc2)cc1 (stereo not drawn) have?
510 nM

Query molecule follows.
What value of IC50 on human ACC2 (Homo sapiens (Human)) does CCCc1ccc(C#Cc2ccc(C(C)NC(C)=O)cc2)cc1 (stereo not drawn) have?
410 nM

###

Recorded log10 of IC50 by entry
Target: human ACC2 (Homo sapiens (Human))
Scale: log10; quantity: IC50; unit before log: nM

Known results for compounds:
What value of log10 of IC50 on human ACC2 (Homo sapiens (Human)) does CCCCn1ccc(C#Cc2ccc(CC(C)NC(C)=O)cc2)cc1=O (stereo not shown) have?
3.04

What value of log10 of IC50 on human ACC2 (Homo sapiens (Human)) does CC(=O)NC(C)Cc1ccc(C#Cc2cccc(C(=O)N3CCN(C(C)C)CC3)c2)cc1 (stereo not shown) have?
3.92

What value of log10 of IC50 on human ACC2 (Homo sapiens (Human)) does CC(=O)NC(C)Cc1ccc(C#Cc2ccc(OCC(C)C)cn2)cc1 (stereo not shown) have?
2.81

Next:
What value of log10 of IC50 on human ACC2 (Homo sapiens (Human)) does CC(Cc1ccc(C#Cc2cnc(NC3CCC3)nc2)cc1)NC(=O)C1CC1 (stereo not shown) have?
2.51

What value of log10 of IC50 on human ACC2 (Homo sapiens (Human)) does `CC(C)COc1ccc(C#Cc2ccc([C@H](C)NC(=O)C3CC3)cc2)cc1` have?
2.76

What value of log10 of IC50 on human ACC2 (Homo sapiens (Human)) does CCOc1ccc(C#Cc2ccc(CC(C)NC(C)=O)cc2)cc1 (stereo not shown) have?
2.08

What value of log10 of IC50 on human ACC2 (Homo sapiens (Human)) does CC(Cc1ccc(C#Cc2ccc(OC3CCCC3)nc2)cc1)NC(=O)C1CC1 (stereo not shown) have?
2.36

What value of log10 of IC50 on human ACC2 (Homo sapiens (Human)) does `CCCOc1ccc(C#Cc2ccc(CC(C)(C)NC(C)=O)cc2)cc1` have?
1.85

What value of log10 of IC50 on human ACC2 (Homo sapiens (Human)) does COC(=O)NC(C)Cc1ccc(C#Cc2cnc(N3CCC4(CC4)C3)nc2)cc1 (stereo not shown) have?
2.79

What value of log10 of IC50 on human ACC2 (Homo sapiens (Human)) does CCOc1ccc(C#Cc2ccc(C(C)NC(=O)Nc3cccnc3)cc2)cc1 (stereo not shown) have?
3.34

What value of log10 of IC50 on human ACC2 (Homo sapiens (Human)) does CCCOc1ccc(C#Cc2ccc(C(C)NC(C)=O)cc2)cn1 (stereo not shown) have?
3.08

What value of log10 of IC50 on human ACC2 (Homo sapiens (Human)) does CC(=O)NC(C)Cc1ccc(C#Cc2cnn(Cc3ccccc3)c2)cc1 (stereo not shown) have?
2.48

What value of log10 of IC50 on human ACC2 (Homo sapiens (Human)) does CC(=O)NC(C)Cc1ccc(C#Cc2cnc(OCc3ccccn3)nc2)cc1 (stereo not shown) have?
3.26

What value of log10 of IC50 on human ACC2 (Homo sapiens (Human)) does CC(=O)NC(C)Cc1ccc(C#Cc2cnc(NCc3ccc(C)cc3)nc2)cc1 (stereo not shown) have?
2.04

What value of log10 of IC50 on human ACC2 (Homo sapiens (Human)) does CC(=O)NC(C)c1ccc(C#Cc2ccc(OC(C)(C)C)cc2)cc1 (stereo not shown) have?
2.62

What value of log10 of IC50 on human ACC2 (Homo sapiens (Human)) does `CCOc1ncc(C#Cc2ccc([C@H](C)NC(=O)C3CC3)cc2)cn1` have?
3.32
